These entries and their values trace back to patent US20210196796A1.

Can you tell me 3F8 Ortho Proliferation Signal 1:50 for the items I'm about to list?
Target: T1, orthogonal hCD122 receptor (hoRb), hCD122 with H133D and Y134F (human, UniProt P14784 27-550)
T1 sequence: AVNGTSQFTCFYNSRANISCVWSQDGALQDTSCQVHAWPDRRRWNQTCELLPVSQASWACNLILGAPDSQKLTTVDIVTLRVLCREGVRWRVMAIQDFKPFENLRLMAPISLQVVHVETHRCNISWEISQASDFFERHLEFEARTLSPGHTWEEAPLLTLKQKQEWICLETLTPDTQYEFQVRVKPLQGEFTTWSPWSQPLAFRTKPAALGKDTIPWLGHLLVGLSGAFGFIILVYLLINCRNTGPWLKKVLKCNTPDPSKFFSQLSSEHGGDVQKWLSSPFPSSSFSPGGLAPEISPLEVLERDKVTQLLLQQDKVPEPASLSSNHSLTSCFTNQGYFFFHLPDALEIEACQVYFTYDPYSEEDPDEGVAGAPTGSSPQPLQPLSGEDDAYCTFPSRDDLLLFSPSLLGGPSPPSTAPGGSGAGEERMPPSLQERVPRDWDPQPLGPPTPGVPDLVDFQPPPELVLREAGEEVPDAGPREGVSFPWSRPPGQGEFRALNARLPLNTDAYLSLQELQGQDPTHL
Experiment: cell-based or functional assay
Give bare numbers, in cts/min.

As a guide, the following entries are already answered.
T113N, SQVLKA (ligand) APTSSSTKKTQLQLSQLLVLLKAILNGINNYKNPKLTRMLTFKFYMPKKATELKHLQCLEEELKPLEEVLNLAQSKNFHLRPRDLISNINVIVLELKGSETTFMCEYADETANIVEFLNRWITFCQSIISTLT    13600
SQVLKH (ligand) APTSSSTKKTQLQLSQLLVLLKHILNGINNYKNPKLTRMLTFKFYMPKKATELKHLQCLEEELKPLEEVLNLAQSKNFHLRPRDLISNINVIVLELKGSETTFMCEYADETATIVEFLNRWITFCQSIISTLT    18700
SQVLEA (ligand) APTSSSTKKTQLQLSQLLVLLEAILNGINNYKNPKLTRMLTFKFYMPKKATELKHLQCLEEELKPLEEVLNLAQSKNFHLRPRDLISNINVIVLELKGSETTFMCEYADETATIVEFLNRWITFCQSIISTLT    12600

Could you now look at the following binder, please?
*Q* Give its 3F8 Ortho Proliferation Signal 1:50 value. Item: T3A, SQVLKA (ligand) APASSSTKKTQLQLSQLLVLLKAILNGINNYKNPKLTRMLTFKFYMPKKATELKHLQCLEEELKPLEEVLNLAQSKNFHLRPRDLISNINVIVLELKGSETTFMCEYADETATIVEFLNRWITFCQSIISTLT
*A* 19500
